TARGET_SYSTEM: SIRT1 (Homo sapiens)
TEST_DESCRIPTION: Trp mass spectrometry assay (SIRT1 activation)
Type: biochemical
CONDITION: concentration of test compound that results in 150% activation of SIRT1; Trp peptide substrate
READOUT_LABEL: Tryp AVG EC1.5 (μM)

INSERT INTO measurements (compound, endpoint_value) VALUES
  ('N#Cc1cc(-c2ccc3c(n2)N(C(=O)Nc2ccccn2)[C@H]2CCN3C2)ccc1F [Example 341]', 'A (EC1.5<1 μM)'),
  ('COc1cc(NC(=O)N2c3nc(-c4cccc(Cl)c4)ccc3N3CCC2CC3)nc(OC)n1 [Example 523]', 'A (EC1.5<1 μM)');

* * *

Could you please report measured Emax for the items listed next?
TARGET_SYSTEM: SIRT1 (Homo sapiens, UniProt Q96EB6)
Sequence (Q96EB6 1-747): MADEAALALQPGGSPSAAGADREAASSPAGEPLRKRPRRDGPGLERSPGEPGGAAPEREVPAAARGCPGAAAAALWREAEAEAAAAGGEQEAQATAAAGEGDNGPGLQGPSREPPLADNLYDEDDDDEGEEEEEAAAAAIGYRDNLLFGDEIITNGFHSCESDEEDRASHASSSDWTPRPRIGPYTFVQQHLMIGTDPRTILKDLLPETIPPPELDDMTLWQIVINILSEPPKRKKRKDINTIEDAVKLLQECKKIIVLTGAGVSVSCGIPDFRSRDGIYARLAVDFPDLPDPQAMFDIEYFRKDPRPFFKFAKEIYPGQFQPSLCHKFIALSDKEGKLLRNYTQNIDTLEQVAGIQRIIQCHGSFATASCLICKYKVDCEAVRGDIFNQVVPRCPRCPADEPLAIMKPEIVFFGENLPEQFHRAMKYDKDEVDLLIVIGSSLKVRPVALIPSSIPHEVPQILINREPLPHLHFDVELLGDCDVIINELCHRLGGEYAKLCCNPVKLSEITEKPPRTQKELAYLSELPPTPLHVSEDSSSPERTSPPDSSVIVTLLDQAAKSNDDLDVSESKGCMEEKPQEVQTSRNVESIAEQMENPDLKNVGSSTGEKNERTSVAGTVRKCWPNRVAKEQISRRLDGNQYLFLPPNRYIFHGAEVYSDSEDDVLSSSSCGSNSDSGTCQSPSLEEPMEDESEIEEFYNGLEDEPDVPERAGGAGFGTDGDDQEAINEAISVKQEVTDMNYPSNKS
TEST_DESCRIPTION: Trp mass spectrometry assay (SIRT1 activation)
Type: biochemical
CONDITION: percent maximum fold activation of SIRT1; Trp peptide substrate; read-out: Tryp % Fold Act

Please review the following examples before continuing.
INSERT INTO measurements (smiles_notation, readout_label, endpoint_value) VALUES
  ('Cc1ccc(-c2cccc(NC(=O)N3c4nc(-c5cccc(C(F)(F)F)c5)ccc4N4CC[C@H]3C4)c2)cc1C', 'Emax', '< 150%'),
  ('CC(C)c1cccc(-c2ccc3c(n2)N(C(=O)Nc2ccccn2)[C@H]2CCN3C2)c1', 'Emax', '≥ 150%'),
  ('O=C(Nc1cnccn1)N1c2nc(-c3ccnc(N4CC[C@@H](F)C4)c3)ccc2N2CC[C@H]1C2', 'Emax', '≥ 150%');

Okay, now this compound:
Bench note, SIRT1 (Homo sapiens, UniProt Q96EB6): Cc1cc(-c2ccc3c(n2)N(C(=O)Nc2nc(C)c(C)s2)[C@H]2CCN3C2)ccn1 , Emax reads ≥ 150%

* * *

TARGET_SYSTEM: SIRT1 (Homo sapiens, UniProt Q96EB6)
Sequence (Q96EB6 1-747): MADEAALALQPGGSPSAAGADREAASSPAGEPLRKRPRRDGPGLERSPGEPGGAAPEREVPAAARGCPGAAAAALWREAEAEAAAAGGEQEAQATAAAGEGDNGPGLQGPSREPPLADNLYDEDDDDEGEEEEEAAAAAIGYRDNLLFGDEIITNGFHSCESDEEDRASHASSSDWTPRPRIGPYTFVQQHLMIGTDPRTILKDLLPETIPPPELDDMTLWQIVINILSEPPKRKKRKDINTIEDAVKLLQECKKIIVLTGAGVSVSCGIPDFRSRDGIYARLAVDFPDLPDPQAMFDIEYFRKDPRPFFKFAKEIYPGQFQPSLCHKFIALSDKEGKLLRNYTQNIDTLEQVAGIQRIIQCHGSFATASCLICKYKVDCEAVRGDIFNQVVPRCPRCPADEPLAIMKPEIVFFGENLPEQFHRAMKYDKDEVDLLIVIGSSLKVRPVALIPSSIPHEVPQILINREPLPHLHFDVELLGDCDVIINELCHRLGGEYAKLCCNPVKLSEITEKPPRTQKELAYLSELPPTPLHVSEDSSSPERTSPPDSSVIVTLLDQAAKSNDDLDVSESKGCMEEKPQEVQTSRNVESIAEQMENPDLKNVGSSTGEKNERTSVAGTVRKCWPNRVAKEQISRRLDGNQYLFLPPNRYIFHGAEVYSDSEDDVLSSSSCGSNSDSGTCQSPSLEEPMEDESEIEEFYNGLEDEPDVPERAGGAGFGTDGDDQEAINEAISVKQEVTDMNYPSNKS
TEST_DESCRIPTION: Trp mass spectrometry assay (SIRT1 activation)
Format: biochemical
CONDITION: concentration of test compound that results in 150% activation of SIRT1; Trp peptide substrate
READOUT_LABEL: Tryp AVG EC1.5 (μM)

Please review the following examples before continuing.
INSERT INTO results (molecule, target_system, endpoint_value) VALUES
  ('Cc1noc(C)c1-c1ccc2c(n1)N(C(=O)Nc1cnccn1)[C@H]1CCN2C1', 'SIRT1 (Homo sapiens, UniProt Q96EB6)', 'C (EC1.5>25 μM)'),
  ('O=C(Nc1cncc(F)c1)N1c2nc(N3CCCC(C(F)(F)F)C3)ccc2N2CCC[C@@H]1C2 (stereo partly drawn)', 'SIRT1 (Homo sapiens, UniProt Q96EB6)', 'B (EC1.5 1-25 μM)'),
  ('O=C(Nc1ccccn1)N1c2nc(-c3ccnc(N4CCC(F)(F)C4)c3)ccc2N2CC[C@H]1C2', 'SIRT1 (Homo sapiens, UniProt Q96EB6)', 'A (EC1.5<1 μM)'),
  ('N#Cc1cccc(-c2ccc3c(n2)N(C(=O)Nc2ccccn2)[C@H]2CCCN3C2)c1', 'SIRT1 (Homo sapiens, UniProt Q96EB6)', 'A (EC1.5<1 μM)'),
  ('COc1cc(NC(=O)N2c3nc(-c4cccc(C(F)(F)F)n4)ccc3N3CC[C@H]2C3)ncn1', 'SIRT1 (Homo sapiens, UniProt Q96EB6)', 'B (EC1.5 1-25 μM)'),
  ('CC(=O)N1CCCN(c2ccc3c(n2)N(C(=O)Nc2ccncn2)[C@H]2CCCN3C2)CC1', 'SIRT1 (Homo sapiens, UniProt Q96EB6)', 'C (EC1.5>25 μM)'),
  ('O=C(O[C@@H]1CN2C[C@H]1N(C(=O)Nc1ccccn1)c1nc(-c3cccc(C(F)(F)F)c3)ccc12)c1ccccc1', 'SIRT1 (Homo sapiens, UniProt Q96EB6)', 'C (EC1.5>25 μM)'),
  ('O=C(Nc1cncc(F)c1)N1c2nc(N3CC[C@H](F)C3)ccc2S(=O)(=O)N2CC[C@H]1C2', 'SIRT1 (Homo sapiens, UniProt Q96EB6)', 'C (EC1.5>25 μM)');

// each molecule listed below needs its Tryp AVG EC1.5 (μM)
1. Cc1nc(NC(=O)N2c3nc(-c4cccc(N5CCOCC5)c4)ccc3N3CCC[C@H]2C3)sc1C
2. O=C(Nc1cccnc1)N1c2nc(N3CCCC(C(F)(F)F)C3)ccc2N2CCC[C@@H]1C2 (stereo partly drawn)
3. CS(=O)(=O)N1CCCN(c2ccc3c(n2)N(C(=O)Nc2ccncn2)[C@H]2CCCN3C2)CC1

Result:
1: B (EC1.5 1-25 μM); 2: B (EC1.5 1-25 μM); 3: B (EC1.5 1-25 μM)

// each molecule listed below needs its Tryp AVG EC1.5 (μM)
1. O=C(Nc1cnccn1)N1c2nc(N3CCCC(C(F)(F)F)C3)ccc2N2CCC[C@@H]1C2 (stereo partly drawn)
2. Cc1c(-c2ccc3c(n2)N(C(=O)Nc2ccccn2)[C@H]2CCN3C2)cnn1C
3. O=C(Nc1cncc(F)c1)N1c2nc(-c3cccc(C(F)(F)F)c3)ccc2N2CCC1CC2
4. O=C(Nc1ccccn1)N1c2nc(-c3cccc(N4CCC(C(F)(F)F)C4)c3)ccc2N2CC[C@H]1C2 (stereo partly drawn)

Result:
B (EC1.5 1-25 μM)
B (EC1.5 1-25 μM)
A (EC1.5<1 μM)
B (EC1.5 1-25 μM)

* * *

TARGET_SYSTEM: UniProt Q96EB6
TEST_DESCRIPTION: Trp mass spectrometry assay (SIRT1 activation)
Assay type: biochemical
CONDITION: concentration of test compound that results in 150% activation of SIRT1; Trp peptide substrate
READOUT_LABEL: Tryp AVG EC1.5 (μM)

INSERT INTO assay_data (molecule, endpoint_value) VALUES
  ('CS(=O)(=O)c1cncc(-c2ccc3c(n2)N(C(=O)Nc2cccnc2)[C@H]2CCCN3C2)c1 [Example 376]', 'A (EC1.5<1 μM)'),
  ('NCc1ccc(NC(=O)N2c3nc(-c4cccc(C(F)(F)F)c4)ccc3N3CC[C@H]2C3)cc1 [Example 429]', 'B (EC1.5 1-25 μM)'),
  ('COc1cc(NC(=O)N2c3nc(-c4ccc(C)nc4)ccc3N3CCC[C@H]2C3)ncn1 [Example 478]', 'B (EC1.5 1-25 μM)'),
  ('O=C(Nc1ccccn1)N1c2nc(-c3cccc(C(F)(F)F)c3)ccc2N2C[C@@H](O)[C@H]1C2 [Example 601]', 'A (EC1.5<1 μM)'),
  ('O=C(Nc1cnccn1)N1c2nc(N3CCCC(C(F)(F)F)C3)ccc2N2CCC[C@H]1C2 (stereo partly shown) [Example 293]', 'A (EC1.5<1 μM)');

// each molecule listed below needs its Tryp AVG EC1.5 (μM)
1. COc1ccc(-c2ccc3c(n2)N(C(=O)Nc2ccccn2)[C@H]2CCN3C2)cn1 [Example 342]
2. O=C(Nc1cncc(F)c1)N1c2nc(-c3cccc(N4CC[C@@H](F)C4)c3)ccc2N2CC[C@H]1C2 [Example 282]
3. O=C(Nc1ccccn1)N1c2nc(-c3cc(Cl)cc(Cl)c3)ccc2N2CC[C@H]1C2 [Example 324]
4. O=C(Nc1cncc(F)c1)N1c2nc(-c3cccc(Cl)c3)ccc2N2CC[C@@H]1C2 [Example 218]
5. Cc1cc(NC(=O)N2c3nc(-c4cccc(C(F)(F)F)c4)ccc3N3CC[C@H]2C3)cc(Br)n1 [Example 540]
6. COc1cc(NC(=O)N2c3nc(-c4cccc(N(C)C)c4)ccc3N3CCC[C@H]2C3)ncn1 [Example 385]
7. Cn1nccc1-c1ccc2c(n1)N(C(=O)Nc1cnccn1)[C@H]1CCN2C1 [Example 414]

Result:
["B (EC1.5 1-25 μM)", "A (EC1.5<1 μM)", "A (EC1.5<1 μM)", "A (EC1.5<1 μM)", "A (EC1.5<1 μM)", "A (EC1.5<1 μM)", "B (EC1.5 1-25 μM)"]

// each molecule listed below needs its Tryp AVG EC1.5 (μM)
1. CS(=O)(=O)c1cncc(-c2ccc3c(n2)N(C(=O)Nc2cnccn2)[C@H]2CCCN3C2)c1 [Example 378]
2. O=C(Nc1cncc(F)c1)N1c2nc(-c3cccc(C(F)(F)F)c3)ccc2N2CCC[C@@H]1C2 [Example 273]
3. CN(C)[C@H]1CCN(c2ccc3c(n2)N(C(=O)Nc2cnccn2)[C@H]2CCN3C2)C1 [Example 246]
4. O=C(Nc1ccc2c(c1)CCC2)N1c2nc(-c3cccc(C(F)(F)F)c3)ccc2N2CC[C@H]1C2 [Example 624]

Result:
["A (EC1.5<1 μM)", "A (EC1.5<1 μM)", "B (EC1.5 1-25 μM)", "B (EC1.5 1-25 μM)"]

// each molecule listed below needs its Tryp AVG EC1.5 (μM)
1. CS(=O)(=O)c1cncc(-c2ccc3c(n2)N(C(=O)Nc2cccnn2)[C@H]2CCCN3C2)c1 [Example 380]
2. N#Cc1cncc(-c2ccc3c(n2)N(C(=O)Nc2cncc(F)c2)[C@H]2CCCN3C2)c1 [Example 535]
3. O=C(Nc1ccccn1)N1c2nc(-c3ccnc(N4CCC(C(F)(F)F)C4)c3)ccc2N2CC[C@H]1C2 (stereo partly shown) [Example 367]
4. Cc1cc(-c2ccc3c(n2)N(C(=O)Nc2nc(C)c(C)s2)[C@H]2CCN3C2)ccn1 [Example 481]
5. O=C(Nc1cncc(F)c1)N1c2nc(-c3cccc(N4CCC(F)(F)C4)c3)ccc2N2CC[C@H]1C2 [Example 271]

Result:
1: A (EC1.5<1 μM); 2: B (EC1.5 1-25 μM); 3: A (EC1.5<1 μM); 4: A (EC1.5<1 μM); 5: A (EC1.5<1 μM)

Given item O=C(Nc1cccc(-n2cncn2)c1)N1c2nc(-c3cccc(C(F)(F)F)c3)ccc2N2CC[C@H]1C2 [Example 581] , the value recorded as its Tryp AVG EC1.5 (μM) is A (EC1.5<1 μM)
